Provide the recorded Kd for the entries that follow.
Molecular target: T1, human CD123 (IL-3Rα, interleukin-3 receptor alpha chain) (human, UniProt P26951 19-378)
T1 construct: CD123 on human cell lines (TF-1, HNT-34, MOLM-13 and other AML, B-ALL, CML and NHL lines) or on 300-19 cells stably expressing human CD123; also called CD123 antigen; human CD123 antigen
T1 sequence (P26951 19-378): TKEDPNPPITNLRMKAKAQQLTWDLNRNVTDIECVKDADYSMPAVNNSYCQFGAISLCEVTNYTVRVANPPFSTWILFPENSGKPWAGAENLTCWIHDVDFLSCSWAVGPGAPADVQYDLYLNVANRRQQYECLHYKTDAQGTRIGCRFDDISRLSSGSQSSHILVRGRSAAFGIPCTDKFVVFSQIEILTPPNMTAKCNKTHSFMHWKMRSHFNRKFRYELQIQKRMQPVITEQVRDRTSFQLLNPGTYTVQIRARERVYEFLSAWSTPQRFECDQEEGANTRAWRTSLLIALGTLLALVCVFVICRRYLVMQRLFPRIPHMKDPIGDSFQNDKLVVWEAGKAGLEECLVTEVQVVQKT
Experiment: flow cytometry on HNT-34 cells; EC50 of the binding curve taken as apparent Kd
Give bare numbers, in nM.

Solved cases (3 shown):
{"columns": ["binder", "result"],
 "data": [
  ["muCD123-6 (antibody, mouse IgG1, kappa, V domains shown, Murine monoclonal antibody purified from hybridoma supernatant; also called CD123Mu-6; CD123 Mu-6) VH: EFQLQQSGPELVKPGASVKMSCKASGYIFTSSIMHWMKQKPGQGLEWIGYIKPYNDGTKYNEKFKGKATLTSDKSSSTANMELNSLTSEDSAVYYCAREGGNDYYDTMDYWGQGTSVTVSS VL: DIKMTQSPSSMYASLGERVTITCKASQDINSYLSWFQQKPGKSPKTLIYRVNRLVDGVPSRFSGSGSGQDYSLTISSLEYEDMGIYYCLQYDAFPYTFGGGTKLEIKR", 0.07],
  ["muCD123-3 (antibody, mouse IgG1, kappa, V domains shown, Murine monoclonal antibody purified from hybridoma supernatant; also called CD123Mu-3; CD123 Mu-3) VH: EFQLQQSGPEVVKPGASVKMSCKASGYTFTSYVMHWMKQKPGQGLEWIGYIKPYKDGTKYNEKFKGKATLISDKPSSTAYMELSSLTSEDSAVYYCAREGENGYYDAMDYWGQGTSVTVSS VL: DIQMTQSPSSLSASLGGKVTITCKASQDINKYIAWYQHKPGKGPRLLIHYTSTLQPGIPSRFSGSGSGRDYSFSISNLEPEDIATYYCLQYDNLLYTFGGGTKLELKR", 0.2],
  ["7G3 (antibody, V domains shown) VH: EVQLQQSGPELVKPGASVKMSCKASGYTFTDYYMKWVKQSHGKSLEWIGDIIPSNGATFYNQKFKGKATLTVDRSSSTAYMHLNSLTSEDSAVYYCTRSHLLRASWFAYWGQGTLVTVSA VL: DFVMTQSPSSLTVTAGEKVTMSCKSSQSLLNSGNQKNYLTWYLQKPGQPPKLLIYWASTRESGVPDRFTGSGSGTDFTLTISSVQAEDLAVYYCQNDYSYPYTFGGGTKLEIKR", 2]
]}

Ask: What Kd value was documented for this binder, muCD123-14 (antibody, mouse IgG1, kappa, V domains shown, Murine monoclonal antibody purified from hybridoma supernatant; also called CD123Mu-14; CD123 Mu-14) VH: EVKLVESGGDLVKPGGSLKLSCAASGFTFSNYAMSWVRQNSEKRLEWVATINSGGSFTYYPDSVKGRFTISRDNAKDSLYLQMSSLNSEDTAMYYCARQSEAYYGYDKRTWFAYWGQGTLVTVSS VL: DILLTQSPAILSVSPGTRVSFSCRASQSVGTSIHWYQQRPNGFPRLLIKYASESISGIPSRFSGSGSGTDFTLNINSVESEDIADYYCQQSKSWPLTFGAGTKLELKR ?
Result: 0.5

Origin of values: patent US20180079819A1
